Could you please report measured IC50 for the items listed next?
Please give a number only; it is taken to be in nM.

Reported UniProtKB P00742 IC50 for item CNC(=O)N(C)c1ccc(C(=O)Nc2ccc(C)cc2C(=O)Nc2ccc(C)cc2)cc1 [Compound 312] was 0.15

Reported UniProtKB P00742 IC50 for item CNC(=O)N(C)c1ccc(C(=O)Nc2ccc(C)cc2C(=O)Nc2ccc(Cl)cc2)cc1 [Compound 311] was 2

Reported UniProtKB P00742 IC50 for item CNC(=O)N(C)c1ccc(C(=O)Nc2ccc(C)cc2C(=O)Nc2ccc(Cl)cn2)cc1 [Compound 117] was 0.15

Reported UniProtKB P00742 IC50 for item CC(=N)N(C)c1ccc(C(=O)Nc2ccc(C)cc2C(=O)Nc2ccc(Cl)cc2)cc1 [Compound 304] was 1

Reported UniProtKB P00742 IC50 for item CC(=N)N(C)c1ccc(C(=O)Nc2ccccc2C(=O)Nc2ccc(Cl)cn2)cc1 [Compound 310] was 2

Reported UniProtKB P00742 IC50 for item CNC(=O)N(C)c1ccc(C(=O)Nc2ccccc2C(=O)Nc2ccc(Cl)cn2)cc1 [Compound 317] was 0.25

Reported UniProtKB P00742 IC50 for item CC(=N)N(C)c1ccc(C(=O)Nc2ccc(C)cc2C(=O)Nc2ccc(Cl)cn2)c(F)c1 [Compound 302] was 0.8

Reported UniProtKB P00742 IC50 for item COc1cc(N(C)C(C)=N)ccc1C(=O)Nc1ccc(C)cc1C(=O)Nc1ccc(Cl)cn1 [Compound 307] was 1

Reported UniProtKB P00742 IC50 for item CC(=N)N(C)c1ccc(C(=O)Nc2ccc(Cl)cc2C(=O)Nc2ccc(Cl)cn2)c(F)c1 [Compound 303] was 1
